Each entry below lists one item and its recorded metabolised at 0.5 h, 10 µM value.
Assay: Drug metabolism in CD1 mouse liver microsomes at 10 uM after 30 mins by LCMS analysis
Assay type: ADME
Details: read-out: Drug metabolism
Report the figure in % without appending any unit label.

                               query_smiles            observed_property  observed_result
0  CCOc1cc(-c2cnn(C)c2)ccc1Nc1ncc2ccnc(-c3cnn(C)c3)c2n1  metabolised at 0.5 h, 10 µM               45
1  CC(C)Oc1cc(-c2cnn(C)c2)ccc1Nc1ncc2ccnc(-c3cnn(C)c3)c2n1  metabolised at 0.5 h, 10 µM               45
2  COc1cc(-c2cnn(C)c2)ccc1Nc1ncc2ccnc(-c3ccccc3)c2n1  metabolised at 0.5 h, 10 µM               40

The reported metabolised at 0.5 h, 10 µM of the compound COc1cc(-c2cnn(C)c2)ccc1Nc1ncc2ccnc(C3CC3)c2n1 was 51

====

Experiment: Half life in Sprague-Dawley rat blood at 5 mg/kg, iv or po […] by ESI-LCMS/MS analysis
Assay type: ADME, organism-based
observed-property: half-life

The reported half-life of the compound COc1cc(-c2cnn(C)c2)ccc1Nc1ncc2ccnc(N[C@@H](C)C(C)(C)C)c2n1 was 2.5 h

====

Assay: Half life in Balb/C mouse blood at 5 mg/kg, iv or po after 24 hrs by ESI-LCMS/MS analysis
Assay type: ADME, organism-based
observed-property: half-life

The reported half-life of the compound COc1cc(-c2cnn(C)c2)ccc1Nc1ncc2ccnc(N[C@@H](C)C(C)(C)C)c2n1 was 8.2 h

====

Biological target: Mitogen-activated protein kinase 8 (Homo sapiens)
Sequence (P45983 whole entry): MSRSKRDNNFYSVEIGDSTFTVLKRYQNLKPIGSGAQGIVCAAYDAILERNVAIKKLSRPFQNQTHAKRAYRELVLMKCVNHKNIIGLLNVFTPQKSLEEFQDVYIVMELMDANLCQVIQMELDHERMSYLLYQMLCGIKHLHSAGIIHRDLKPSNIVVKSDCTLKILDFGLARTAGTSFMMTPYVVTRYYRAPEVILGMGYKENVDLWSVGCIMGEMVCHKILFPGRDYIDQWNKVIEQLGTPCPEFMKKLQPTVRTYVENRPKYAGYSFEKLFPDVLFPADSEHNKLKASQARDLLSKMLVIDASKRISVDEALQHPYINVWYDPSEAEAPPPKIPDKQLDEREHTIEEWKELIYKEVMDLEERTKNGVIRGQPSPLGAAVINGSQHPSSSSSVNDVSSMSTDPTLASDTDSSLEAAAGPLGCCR
Assay: Inhibition of human full length recombinant His-tagged JNK1 expressed in baculovirus by lanthascreen assay
observed-property: IC50 (nM)
Report the figure in nM without appending any unit label.

The reported IC50 of the molecule COc1cc(-c2cnn(C)c2)ccc1Nc1ncc2ccnc(N[C@@H](C)C(C)(C)C)c2n1 was 110

====

Experiment: Drug metabolism in Sprague-Dawley rat liver microsomes at 10 uM after 30 mins by LCMS analysis
Format: ADME
Details: read-out: Drug metabolism
observed-property: metabolised at 0.5 h, 10 µM (%)
Report the figure in % without appending any unit label.

The reported metabolised at 0.5 h, 10 µM of the compound COc1cc(-c2cnn(C)c2)ccc1Nc1ncc2ccnc(N[C@@H](C)C(C)(C)C)c2n1 was 24

====

Assay: Drug metabolism in CD1 mouse liver microsomes at 10 uM after 30 mins by LCMS analysis
Format: ADME
Conditions: read-out: Drug metabolism
observed-property: metabolised at 0.5 h, 10 µM (%)
Report the figure in % without appending any unit label.

Sample answers from the record:
>>> print(df.to_string())
                               query_smiles  units_label  observed_result
0  COc1cc(-c2cnn(C)c2)ccc1Nc1ncc2ccnc(NCC3CC3)c2n1            %               33
1  Cc1cc(-c2cnn(C)c2)ccc1Nc1ncc2ccnc(-c3cnn(C)c3)c2n1            %               63
2  COCCOc1cc(-c2cnn(C)c2)ccc1Nc1ncc2ccnc(-c3cnn(C)c3)c2n1            %               59

The reported metabolised at 0.5 h, 10 µM of the molecule COc1cc(-c2cnn(C)c2)ccc1Nc1ncc2ccnc(N3CCCC3)c2n1 was 64

The reported metabolised at 0.5 h, 10 µM of the molecule COc1cc(-c2cnn(C)c2)ccc1Nc1ncc2ccnc(NCC(C)(C)C)c2n1 was 31

The reported metabolised at 0.5 h, 10 µM of the molecule COc1cc(-c2cnn(C)c2)ccc1Nc1ncc2ccnc(N[C@@H](C)C(C)(C)C)c2n1 was 27

The reported metabolised at 0.5 h, 10 µM of the molecule COc1cc(-c2cnn(C)c2)ccc1Nc1ncc2ccnc(-c3cnn(C)c3)c2n1 was 73

The reported metabolised at 0.5 h, 10 µM of the molecule COc1cc(-c2cnn(C)c2)ccc1Nc1ncc2ccnc(NCC(C)C)c2n1 was 66

The reported metabolised at 0.5 h, 10 µM of the molecule COc1cc(-c2cnn(C)c2)ccc1Nc1ncc2ccnc(N[C@H](C)C(C)(C)C)c2n1 was 25

The reported metabolised at 0.5 h, 10 µM of the molecule COc1cc(-c2cnn(C)c2)ccc1Nc1ncc2ccnc(NC3CCCCC3)c2n1 was 22
